# Test system: Calf thymus DNA
# Test Summary: Binding affinity to calf thymus DNA assessed as increase in relative viscosity of DNA-compound complex at 5 uM by viscometry
# Assay type: nucleic-acid assay
# Applied Conditions: Bos taurus
The source made the active and inactive calls. The calls are words filed in the database; no cut-off is given here.
Your response should consist of one outcome taken from true (1) = active, false (0) = inactive

Some solved cases for reference:
1) COc1cccc2c1C(=O)c1c(O)c3c(c(O)c1C2=O)C[C@@](O)(C(=O)CO)C[C@@H]3O[C@H]1C[C@H](N)[C@H](O)[C@H](C)O1 ... true (1)
2) COc1ccc2cc(-c3nc4ccc(F)cc4[nH]3)c3cc(OC)c(OC)cc3c2c1 ... true (1)
3) COc1ccc2cc(-c3nc4ccc(Cl)cc4[nH]3)c3cc(OC)c(OC)cc3c2c1 ... true (1)
4) CC[n+]1c(-c2ccccc2)c2cc(N)ccc2c2ccc(N)cc21 ... true (1)

stdin: Dear colleague, could you share the recorded outcome for CN1CCN(c2ccc3[nH]c(-c4ccc5[nH]c(-c6ccc(O)cc6)nc5c4)nc3c2)CC1 when you have a moment?
stdout: false (0)

* * *

# Tested on: MDA-MB-453
# Test Summary: Cytotoxicity in human MDA-MB-453 cells incubated for 48 hrs by MTT assay
# Format: functional, cell-based
# Applied Conditions: MDA-MB-453, 48 h
Each entry below carries its reported log10 of IC50.
Could you please treat all values as log10 of IC50 in µM?

Here are 6 compounds together with their reported answers.
1) COC(=O)Nc1nc2cc(C(=O)c3cccs3)ccc2[nH]1 ... -0.04
2) COc1cc2cc(-c3nc4ccc(C(=O)O)cc4[nH]3)c3cc(OC)c(OC)cc3c2cc1OC ... 1.03
3) COc1cc2cc(-c3nc4ccc(Br)cc4[nH]3)c3cc(OC)c(OC)cc3c2cc1OC ... 1.18
4) COc1cc2cc(-c3nc4ccc(Cl)cc4[nH]3)c3cc(OC)c(OC)cc3c2cc1OC ... 0.97
5) COc1cc2cc(-c3nc4cc(Cl)ccc4n3Cc3ccccc3)c3cc(OC)c(OC)cc3c2cc1OC ... 1.24
6) COc1ccc2nc(-c3cc4cc(OC)c(OC)cc4c4cc(OC)c(OC)cc34)[nH]c2c1 ... 1.00

Next, consider the following compound.
stdin: Tell us which log10 of IC50 value is on record for COc1ccc2cc(-c3nc4cc(Cl)ccc4n3Cc3ccccc3)c3cc(OC)c(OC)cc3c2c1
stdout: 0.86

* * *

Each entry below carries its reported pIC50.
# Tested on: MDA-MB-453
# Test Summary: Cytotoxicity in human MDA-MB-453 cells incubated for 48 hrs by MTT assay
# Format: functional, cell-based
# Applied Conditions: MDA-MB-453, 48 h
pIC50: −log10 of the molar value.

stdin: Given COC(=O)c1ccc2nc(-c3cc4cc(OC)c(OC)cc4c4cc(OC)c(OC)cc34)[nH]c2c1 , report its pIC50 on MDA-MB-453.
stdout: < 4.70

stdin: Given COc1cc2cc(-c3nc4cc(C)cc(C)c4[nH]3)c3cc(OC)c(OC)cc3c2cc1OC , report its pIC50 on MDA-MB-453.
stdout: < 4.70

stdin: Given COc1cc2cc(-c3nc4ccc(C)cc4[nH]3)c3cc(OC)c(OC)cc3c2cc1OC , report its pIC50 on MDA-MB-453.
stdout: < 4.70

stdin: Given COc1ccc2cc(-c3nc4ncc(Br)cc4[nH]3)c3cc(OC)c(OC)cc3c2c1 , report its pIC50 on MDA-MB-453.
stdout: < 4.70

stdin: Given COc1cc2cc(-c3nc4ccccc4[nH]3)c3cc(OC)c(OC)cc3c2cc1OC , report its pIC50 on MDA-MB-453.
stdout: < 4.70

stdin: Given COc1ccc2cc(-c3nc4ccccc4[nH]3)c3cc(OC)c(OC)cc3c2c1 , report its pIC50 on MDA-MB-453.
stdout: < 4.70

stdin: Given COc1cc2cc(-c3nc4ccc(F)cc4[nH]3)c3cc(OC)c(OC)cc3c2cc1OC , report its pIC50 on MDA-MB-453.
stdout: < 4.70

stdin: Given COc1ccc2cc(-c3nc4ccc(F)cc4[nH]3)c3cc(OC)c(OC)cc3c2c1 , report its pIC50 on MDA-MB-453.
stdout: 5.18

stdin: Given COc1cc2cc(-c3nc4cc(Cl)ccc4n3Cc3cc(C)cc(C)c3)c3cc(OC)c(OC)cc3c2cc1OC , report its pIC50 on MDA-MB-453.
stdout: 4.78
